# Tested on: LOX IMVI melanoma
# assay-comment: NCI tumour cell line growth inhibition, 48 h; in the data active = GI50 below about 0.43 µM; inactive = the rest
Hello, when you answer, please use one of the following outcomes: active, inactive

compound | class-label
CC1=C(C(=O)Nc2ccc3[nH]ncc3c2)C(c2ccc(F)cc2)N=C(c2ccc(C(F)(F)F)nc2)N1 (stereo not drawn) | inactive
O=C(CCN1CCOCC1)Nc1ccc(Cn2nnc3c2C(=O)c2nnn(Cc4ccc(NC(=O)CCN5CCOCC5)cc4)c2C3=O)cc1 | inactive

Now take the following compound into account.
What is the recorded call for this compound in the test? C/C(=C\c1csc(C)n1)[C@@H]1C[C@@H]2O[C@]2(C)CCC[C@H](C)[C@H](O)[C@@H](C)C(=O)C(C)(C)[C@@H](O)CC(=O)N1
active

Origin of values: PubChem BioAssay (NCI)
